- System: 171881-019-R-J1-PDC complex spheroid growth, % test/control
- protocolNotes: Anticancer human tumor 171881-019-R-J1-PDC patient-derived invasive breast carcinoma cell line growth inhibition [Asc]
- conditionLabel: curve of first compound; second compound 0.949 µM
parameter: IC50

compound="NC1CCC(NC2CC2c2ccccc2)CC1 (stereo not drawn) + CCN1C(C(=O)NC23CCC(C(=O)O)(CC2)CC3)C(c2cccc(Cl)c2F)C2(C(=O)Nc3cc(Cl)ccc32)C12CCCCC2" recordedresult="> 100 nM"
compound="CNC(C)C(=O)NC1CN(S(=O)(=O)c2cccc(S(=O)(=O)N3CCC4CCC(C(=O)NC(c5ccccc5)c5ccccc5)N4C(=O)C(NC(=O)C(C)NC)C3)c2)CCC2CCC(C(=O)NC(c3ccccc3)c3ccccc3)N2C1=O (stereo not drawn) + CCN1C(C(=O)NC23CCC(C(=O)O)(CC2)CC3)C(c2cccc(Cl)c2F)C2(C(=O)Nc3cc(Cl)ccc32)C12CCCCC2" recordedresult="> 1000 nM"

Shifting focus to the compound that follows.
# input Need IC50 of Cc1nc(N2CCC3(CC2)COC(C)C3N)c(CO)nc1Sc1ccnc(N)c1Cl (stereo not drawn) + CCN1C(C(=O)NC23CCC(C(=O)O)(CC2)CC3)C(c2cccc(Cl)c2F)C2(C(=O)Nc3cc(Cl)ccc32)C12CCCCC2 , thanks.
# output > 3000 nM
